Just for reference, patent US5126366A is where these values come from.

- TARGET ENTITY: serotonin 5-HT1A receptor (Rattus norvegicus, UniProt P19327)
- Construct: following the procedure of Hall et al., J. Neurochem; 44, 1685 (1985); from tissue
- Sequence (P19327 whole entry): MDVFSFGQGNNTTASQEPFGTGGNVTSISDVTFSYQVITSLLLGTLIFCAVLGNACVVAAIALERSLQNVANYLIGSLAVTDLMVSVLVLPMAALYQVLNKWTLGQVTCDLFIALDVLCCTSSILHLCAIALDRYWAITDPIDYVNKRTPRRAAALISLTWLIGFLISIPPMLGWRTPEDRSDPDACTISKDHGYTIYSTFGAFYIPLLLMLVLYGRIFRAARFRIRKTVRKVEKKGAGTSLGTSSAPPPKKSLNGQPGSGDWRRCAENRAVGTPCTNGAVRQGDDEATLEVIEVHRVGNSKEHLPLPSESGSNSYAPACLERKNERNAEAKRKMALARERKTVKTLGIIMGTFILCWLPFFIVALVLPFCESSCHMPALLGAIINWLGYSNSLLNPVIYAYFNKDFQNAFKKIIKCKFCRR
- ASSAY NOTES: Serotonin 5-HT1A receptor affinity, displacement of [3H]8-OHDPAT
- Format: binding
- CONDITION DESCRIPTION: % at 0.1 μM, read-out: Receptor Affinities 5-HT1A (% @ ( ) μM)
Below is a list of entries, each paired with its recorded inhibition at 0.1 µM value.

# COMPOUND, inhibition at 0.1 µM / %
records = [
    ("COc1ccc2c(c1)OC(CNCCCOc1cccc(N)c1)CO2 (stereo not shown) [Example 8]", 95),
    ("Nc1cccc(OCCCNCC2COc3cc4c(cc3O2)OCO4)c1 (stereo not shown) [Example 10]", 54),
    ("Nc1cccc(OCCCNCC2COc3ccc(F)cc3O2)c1 (stereo not shown) [Example 16]", 87),
    ("Nc1cccc(OCCCNC[C@H]2COc3ccccc3O2)c1 [Example 9]", 100),
]

* * *

- TARGET ENTITY: dopamine D2 receptor (Rattus norvegicus)
- Construct: homogenized limbic brain tissue is incubated with ^3 H-spiroperidol
- Sequence (P61169 whole entry): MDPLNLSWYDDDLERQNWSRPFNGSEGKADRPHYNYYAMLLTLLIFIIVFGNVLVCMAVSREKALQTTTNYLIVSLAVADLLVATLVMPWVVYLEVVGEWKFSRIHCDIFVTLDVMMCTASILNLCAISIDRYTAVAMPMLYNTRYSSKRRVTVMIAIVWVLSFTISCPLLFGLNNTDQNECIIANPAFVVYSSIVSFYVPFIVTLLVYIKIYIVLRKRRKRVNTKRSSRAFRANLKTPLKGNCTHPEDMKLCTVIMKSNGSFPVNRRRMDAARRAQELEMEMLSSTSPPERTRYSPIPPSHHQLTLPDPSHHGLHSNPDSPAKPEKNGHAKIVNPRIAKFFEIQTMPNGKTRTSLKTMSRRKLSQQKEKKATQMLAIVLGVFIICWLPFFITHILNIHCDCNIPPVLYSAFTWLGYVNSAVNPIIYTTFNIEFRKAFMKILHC
- ASSAY NOTES: Dopamine D2 receptor affinity, 3H-spiroperidol binding in homogenized limbic brain tissue
- CONDITION DESCRIPTION: read-out: Receptor Affinities D2 IC50
pIC50: −log10 of the molar value.

# COMPOUND, TARGET ENTITY, pIC50
measured = [
    ("Nc1cccc(OCCCNCC2COc3ccccc3O2)c1 (stereo not shown) [Example 1]", "dopamine D2 receptor (Rattus norvegicus)", 6.28),
]
